What inhibition was measured for each of the following?
biological target: Nitric Oxide Synthase (NOS) (Rattus norvegicus); construct: each drug was incubated with the brain cytosol (200 μg protein/tube); from tissue; host or cells: whole brain (including cerebellum) of male SD rats, cytosolic supernatant (48,000 x g), passed through Dowex AG50WX-8; assay: Binding assay using nitric oxide synthase (NOS), crude preparation from rat brain cytosol, [3H]Na radioligand; details: test compound 10^−4M; brain cytosol of male SD rats, 10 nM [^3H]Na, 27° C., 90 minutes; read-out: Inhibition (%) of specific binding
Counter-ions that a name gives are not always drawn.
Give bare numbers, in %.

{"Compound": "COc1ccnc(-c2ccc3ccc(N)nc3c2)c1 [(d), dihydrochloride]", "Unit of measurement": "%", "inhibition": 99.3}
{"Compound": "Cc1ccnc(-c2ccc3ccc(N)nc3c2)c1 [(e), dihydrochloride]", "Unit of measurement": "%", "inhibition": 98}
{"Compound": "COc1ccnc(-c2sc(NC(=N)N)nc2C)c1", "Unit of measurement": "%", "inhibition": 99}

Required: inhibition, one value per compound below.
1. CCSC(=N)Nc1cccc(-c2cc(OC)ccn2)c1 [(c), dihydrochloride]
2. CNc1ccc2ccc(-c3cc(OC)ccn3)cc2n1 [(f), dihydrochloride]

[100, 99.4]
